target: T1, His-tagged human HtrA1 protease domain (human, UniProt Q92743 161-367); test: BIACORE T200 SPR; Fab analyte over huHtrA1-PD-His captured by anti-His antibody
T1 construct: His-tagged protease domain; also called huHtrA1-PD-His; huHtrA1-PD
T1 sequence (Q92743 other isoform, or with tags, fused parts or gaps limits assumed): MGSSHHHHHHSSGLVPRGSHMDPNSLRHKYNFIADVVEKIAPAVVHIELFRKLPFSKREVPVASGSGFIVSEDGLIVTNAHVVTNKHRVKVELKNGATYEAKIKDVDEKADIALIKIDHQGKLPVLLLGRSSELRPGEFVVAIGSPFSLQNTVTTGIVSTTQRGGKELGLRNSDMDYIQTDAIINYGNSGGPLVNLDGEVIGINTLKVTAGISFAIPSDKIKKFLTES
Parameter: kon. Scope: all listed entries.
quantityName: kon (M⁻¹ s⁻¹)

binder="APEG.LC7.HC3 (Fab, V domains shown) VH: EVQLVQSGAEVKKPGASVKVSCKASGYKFTDSEMHWVRQAPGQGLEWIGGVDPETEGAAYNQKFKGRATITRDTSTSTAYLELSSLRSEDTAVYYCTRGYDYDYALDYWGQGTLVTVSS VL: DIQMTQSPSSLSASVGDRVTITCRASSSVNFIHWYQQKPGKAPKPLISATSNLASGVPSRFSGSGSGTDFTLTISSLQPEDFATYYCQQWYSAPWTFGQGTKVEIK" quantityname=kon recordedmeasurement=239000
binder="h15H6.v4 Fab (Fab, V domains shown, Tested as Fab; also called APEG.LC3.HC3; Fab15H6.v4) VH: EVQLVQSGAEVKKPGASVKVSCKASGYKFTDSEMHWVRQAPGQGLEWIGGVDPETEGAAYNQKFKGRATITRDTSTSTAYLELSSLRSEDTAVYYCTRGYDYDYALDYWGQGTLVTVSS VL: DIQMTQSPSSLSASVGDRVTITCRASSSVEFIHWYQQKPGKAPKPLISATSNLASGVPSRFSGSGSGTDFTLTISSLQPEDFATYYCQQWSSAPWTFGQGTKVEIK" quantityname=kon recordedmeasurement=309000
binder="APEG.LC37.HC23 (Fab, V domains shown, single member of the group m82) VH: EVQLVQSGAEVKKPGASVKVSCKASGYKFRDSEMHWVRQAPGQGLEWIGGVDPETEGAAYNQKFKGRATITRDTSTSTAYLELSSLRSEDTAVYYCTRGYDYDYALDYWGQGTLVTVSS VL: DIQMTQSPSSLSASVGDRVTITCRASSSVEFIHWYQQKPGKAPKPLISATSNLASGVPSRFSGSGSGTDFTLTISSLQPEDFATYYCQQWYSAPWTFGQGTKVEIK" quantityname=kon recordedmeasurement=438000
binder="APEG.LC7.HC2 (Fab, V domains shown) VH: EVQLVQSGAEVKKPGASVKVSCKASGYTFRDSEMHWVRQAPGQGLEWIGGVDPETEGAAYNQKFKGRATITRDTSTSTAYLELSSLRSEDTAVYYCTRGYDYDYALDYWGQGTLVTVSS VL: DIQMTQSPSSLSASVGDRVTITCRASSSVNFIHWYQQKPGKAPKPLISATSNLASGVPSRFSGSGSGTDFTLTISSLQPEDFATYYCQQWYSAPWTFGQGTKVEIK" quantityname=kon recordedmeasurement=213000
binder="APEG.LC347.HC23 (Fab, V domains shown, single member of the group m82) VH: EVQLVQSGAEVKKPGASVKVSCKASGYKFRDSEMHWVRQAPGQGLEWIGGVDPETEGAAYNQKFKGRATITRDTSTSTAYLELSSLRSEDTAVYYCTRGYDYDYALDYWGQGTLVTVSS VL: DIQMTQSPSSLSASVGDRVTITCRASSSVEFIHWYQQKPGKAPKPLISATSHLASGVPSRFSGSGSGTDFTLTISSLQPEDFATYYCQQWYSAPWTFGQGTKVEIK" quantityname=kon recordedmeasurement=397000
